Experiment: In vitro binding affinity of compound was measured to Cyclophilin under competitive ELISA system, activity relative to compound 1
Property: Ratio; scope: individual compounds

| Compound | Ratio |
| --- | --- |
| C/C=C/C[C@@H](C)[C@@H](O)[C@H]1C(=O)N[C@@H](CC(Cl)Cl)C(=O)N(C)CC(=O)N(C)[C@@H](CC(C)C)C(=O)N[C@@H](C(C)C)C(=O)N(C)[C@@H](CC(C)C)C(=O)N[C@@H](C)C(=O)N[C@H](C)C(=O)N(C)[C@@H](CC(C)C)C(=O)N(C)[C@@H](CC(C)C)C(=O)N(C)C(C(C)C)C(=O)N1C (single isomer, unassigned) | 250 |
| C/C=C/C[C@@H](C)[C@@H](O)[C@H]1C(=O)N[C@@H]([C@@H](C)O)C(=O)N(C)CC(=O)N(C)[C@@H](CC(C)C)C(=O)N[C@@H](C(C)C)C(=O)N(C)[C@@H](CC(C)C)C(=O)N[C@@H](C)C(=O)N[C@H](C)C(=O)N(C)[C@@H](CC(C)C)C(=O)N(C)[C@@H](CC(C)C)C(=O)N(C)C(C(C)C)C(=O)N1C (single isomer, unassigned) | 1.4 |
| C/C=C/C[C@@H](C)[C@@H](O)[C@H]1C(=O)N[C@@H](CC2CC2)C(=O)N(C)CC(=O)N(C)[C@@H](CC(C)C)C(=O)N[C@@H](C(C)C)C(=O)N(C)[C@@H](CC(C)C)C(=O)N[C@@H](C)C(=O)N[C@H](C)C(=O)N(C)[C@@H](CC(C)C)C(=O)N(C)[C@@H](CC(C)C)C(=O)N(C)C(C(C)C)C(=O)N1C (single isomer, unassigned) | 250 |
| C/C=C/C[C@@H](C)[C@@H](O)[C@H]1C(=O)N[C@@H]([C@H](O)CC)C(=O)N(C)CC(=O)N(C)[C@@H](CC(C)C)C(=O)N[C@@H](C(C)C)C(=O)N(C)[C@@H](CC(C)C)C(=O)N[C@@H](C)C(=O)N[C@H](C)C(=O)N(C)[C@@H](CC(C)C)C(=O)N(C)[C@@H](CC(C)C)C(=O)N(C)C(C(C)C)C(=O)N1C (single isomer, unassigned) | 5.2 |
| C/C=C/C[C@@H](C)[C@@H](O)[C@H]1C(=O)N[C@@H](C[C@@H](C)O)C(=O)N(C)CC(=O)N(C)[C@@H](CC(C)C)C(=O)N[C@@H](C(C)C)C(=O)N(C)[C@@H](CC(C)C)C(=O)N[C@@H](C)C(=O)N[C@H](C)C(=O)N(C)[C@@H](CC(C)C)C(=O)N(C)[C@@H](CC(C)C)C(=O)N(C)C(C(C)C)C(=O)N1C (single isomer, unassigned) | 207 |
| C/C=C/C[C@@H](C)[C@@H](O)[C@H]1C(=O)N[C@@H](CCC)C(=O)N(C)CC(=O)N(C)[C@@H](CC(C)C)C(=O)N[C@@H](C(C)C)C(=O)N(C)[C@@H](CC(C)C)C(=O)N[C@@H](C)C(=O)N[C@H](C)C(=O)N(C)[C@@H](CC(C)C)C(=O)N(C)[C@@H](CC(C)C)C(=O)N(C)C(C(C)C)C(=O)N1C (single isomer, unassigned) | 4 |

FYI, the data here is from ChEMBL document CHEMBL1127151.
